Target: Gonadotropin-releasing hormone receptor (Rattus norvegicus)
Sequence (P30969 whole entry): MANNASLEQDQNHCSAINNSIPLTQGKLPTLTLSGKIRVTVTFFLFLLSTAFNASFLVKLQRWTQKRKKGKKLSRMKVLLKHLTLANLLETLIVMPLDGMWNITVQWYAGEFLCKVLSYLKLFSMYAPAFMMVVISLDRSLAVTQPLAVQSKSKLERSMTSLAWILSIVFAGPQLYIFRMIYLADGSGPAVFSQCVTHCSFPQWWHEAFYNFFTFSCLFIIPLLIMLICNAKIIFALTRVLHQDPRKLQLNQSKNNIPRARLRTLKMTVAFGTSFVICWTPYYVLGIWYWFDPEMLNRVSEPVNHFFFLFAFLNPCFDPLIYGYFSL
Test Name: Inhibition of binding of radiolabeled histrelin to Gonadotropin-releasing hormone receptor (GnRHr) in rat pituitary gland membranes
Readout: IC50 (nM)
Give bare numbers, in nM.

Study these solved cases before continuing.
CC(=O)Nc1ccc(C[C@H](NC(=O)[C@H](CO)NC(=O)[C@@H](Cc2cccnc2)NC(=O)[C@H](NC(=O)c2cnccn2)NC(=O)[C@@H](Cc2ccc3ccccc3c2)NC(C)=O)C(=O)N[C@H](Cc2ccc(NC(C)=O)cc2)C(=O)N[C@@H](CC(C)C)C(=O)N[C@@H](CCCCNC(C)C)C(=O)N2CCC[C@H]2C(=O)N[C@H](C)C(N)=O)cc1 (single isomer, unassigned) :: 1700
CC(=O)Nc1ccc(C[C@H](NC(=O)[C@H](CO)NC(=O)[C@@H](Cc2cccnc2)NC(=O)[C@@H](Cc2ccc(Cl)cc2)NC(=O)[C@@H](Cc2ccc3ccccc3c2)NC(C)=O)C(=O)N[C@H](Cc2ccc(NC(C)=O)cc2)C(=O)N[C@@H](CNC(=O)C(C)C)C(=O)N[C@@H](CCCCNC(C)C)C(=O)N2CCC[C@H]2C(=O)N[C@H](C)C(N)=O)cc1 :: 2

Now consider a different compound.
State the recorded IC50 for this entry: CC(=O)Nc1ccc(C[C@H](NC(=O)[C@H](CO)NC(=O)[C@@H](Cc2cccnc2)NC(=O)[C@@H](Cc2ccc(Cl)cc2)NC(=O)[C@H](NC(C)=O)N(C)C(=O)c2ccc3ccccc3c2)C(=O)N[C@H](Cc2ccc(NC(C)=O)cc2)C(=O)N[C@@H](CC(C)C)C(=O)N[C@@H](CCCCNC(C)C)C(=O)N2CCC[C@H]2C(=O)N[C@H](C)C(N)=O)cc1
9.2

---

Target: UniProt P30969
Test Name: Inhibition of binding of radiolabeled histrelin to Gonadotropin-releasing hormone receptor (GnRHr) in rat pituitary gland membranes
So I've got a bunch of molecules here, and I need their IC50 values.

Worked set:
CC(=O)Nc1ccc(C[C@H](NC(=O)[C@H](CO)NC(=O)[C@@H](NC(=O)c2ccncc2)NC(=O)[C@@H](Cc2ccc(Cl)cc2)NC(=O)[C@@H](Cc2ccc3ccccc3c2)NC(C)=O)C(=O)N[C@H](Cc2ccc(NC(C)=O)cc2)C(=O)N[C@@H](CC(C)C)C(=O)N[C@@H](CCCCNC(C)C)C(=O)N2CCC[C@H]2C(=O)N[C@H](C)C(N)=O)cc1 (single isomer, unassigned) :: 1.4 nM
CC(=O)Nc1ccc(C[C@H](NC(=O)[C@H](CO)NC(=O)[C@@H](Cc2cccnc2)NC(=O)[C@@H](Cc2ccc(Cl)cc2)NC(=O)[C@@H](Cc2ccc3ccccc3c2)NC(C)=O)C(=O)N[C@H](Cc2ccc(NC(C)=O)cc2)C(=O)N[C@@H](CC(C)C)C(=O)N[C@@H](CCCCNC(C)C)C(=O)N2CCC[C@H]2C(=O)N[C@H](NC=O)C(N)=O)cc1 (single isomer, unassigned) :: 0.59 nM

Any idea what IC50 came out for CC(=O)Nc1ccc(C[C@H](NC(=O)[C@H](NC(=O)CO)NC(=O)[C@@H](Cc2cccnc2)NC(=O)[C@@H](Cc2ccc(Cl)cc2)NC(=O)[C@@H](Cc2ccc3ccccc3c2)NC(C)=O)C(=O)N[C@H](Cc2ccc(NC(C)=O)cc2)C(=O)N[C@@H](CC(C)C)C(=O)N[C@@H](CCCCNC(C)C)C(=O)N2CCC[C@H]2C(=O)N[C@H](C)C(N)=O)cc1 (single isomer, unassigned) on UniProt P30969?
0.3 nM
